- System: Madurella mycetomatis MM55
- TEST: growth relative to untreated control; higher = less inhibition, active = 20 or less
- RUN CONDITIONS: 100 µM
ASSAY READOUT: growth (%)
Answers are plain numbers, in %.

Answered cases to consult:
1) CC(C)(C)c1nn(-c2ccc(Cl)cc2)c2[nH]c(=O)c(CNCc3ccc4c(c3)OCO4)cc12 ... 6.74
2) Cc1nc(NC2(c3ccc(C#N)cc3)CC2)nc(NCC2COC2)c1C ... 22.3
3) FC(F)(F)c1ccnc(Nc2cn3cc(-c4ccc(N5CCOCC5)nc4)ccc3n2)n1 ... 132
4) O=C(Nc1cc(Cl)cc(Cl)c1O)c1c(O)c(Cl)cc(Cl)c1Cl ... 3.21

Item under review: "COc1cccc(OC2CCN(C(=O)c3cc(C(C)(C)C)nn3Cc3ccccc3)CC2)c1" . Reported growth?
118

====

- Tested on: Madurella mycetomatis MM55
- TEST: growth relative to untreated control; higher = less inhibition, active = 20 or less
- RUN CONDITIONS: 100 µM
I'd appreciate it if you could supply growth values for the items below.
Numbers only, in %.

Hey, can you go through the list below and give me growth for every item?
1. Cc1nn(-c2cccc(Cl)c2)c2c1C(C(=O)c1ccc3c(c1)OCO3)CC(=O)N2 (stereo not given)
2. CC(C)Nc1cc2c(cn1)nc(Nc1cc(Cl)cc(C#N)c1)n2C1CCNCC1
3. COc1ccc(-c2cc3ncnc(N4CCN(CCN5CCCC5)CC4)c3s2)cc1
4. CS(=O)(=O)N1CCC(NC(=O)c2cc3ccc(C(F)(F)F)cc3[nH]2)CC1
5. O=C(NC(CCO)C1CCCCC1)c1cc2ccc(C(F)(F)F)cc2[nH]1 (stereo not given)
6. O=c1[nH]c2ccccc2n1CCCN1CCN(C(c2ccccc2)c2ccccc2)CC1

88.3
79.1
4.96
109
85.3
5.01

Provide each entry's growth from the list below.
1. N#Cc1ccc(-c2n[nH]c3ccc(-c4n[nH]c(CC(F)(F)F)n4)cc23)cc1
2. COc1ccc2c(O[C@@H]3C[C@H]4C(=O)N[C@]5(C(=O)NS(=O)(=O)C6CC6)C[C@H]5/C=C\CCCCN(C)C(=O)[C@@H]4C3)cc(-c3nc(C(C)C)cs3)nc2c1C
3. Cc1ccc(NC(=O)c2ccc(CN3CCN(C)CC3)cc2)cc1Nc1nccc(-c2cccnc2)n1
4. Cc1ccc(Cl)cc1NC(=O)c1c(-c2ccccc2Cl)noc1C

114
74.8
70.7
131

====

- Test system: Falciformispora senegalensis CBS197.79
- TEST: growth relative to untreated control; higher = less inhibition, active = 20 or less
- RUN CONDITIONS: 25 µM
API: response.call in active, inactive

1. O=c1[nH]ccc2nc(N[C@@H]3CCNC3)nc(Nc3ccc4c(c3)S(=O)(=O)CC4)c12 ... inactive
2. C[C@H](NC(=O)c1cc2nc(C(F)(F)F)ccc2[nH]1)c1ccccc1 ... inactive
3. CO[C@@H]1[C@H](N(C)C(=O)c2ccccc2)C[C@H]2O[C@]1(C)n1c3ccccc3c3c4c(c5c6ccccc6n2c5c31)C(=O)NC4 ... inactive
4. CCc1nn2c(Nc3ccncc3)cc(C)nc2c1-c1ccccc1 ... inactive
5. CC[C@H](NC(=O)c1cc2c(F)cccc2[nH]1)c1ccccc1 ... inactive

Could you check what this test reported for "CCCNc1nc(NC2CCCCC2)c2ccsc2n1" ?
inactive

Query: recorded result category for Oc1ccccc1CCNC1CCc2ccc(F)cc21 (stereo unspecified) in this test
inactive

Check the results log: what was the call for "CN(C)CCOc1ccc(/C(=C(/CCCl)c2ccccc2)c2ccccc2)cc1" ?
active

I would be grateful if you could indicate the recorded call for c1cc(-c2n[nH]c3ccc(-c4n[nH]c(C5CCCN5)n4)cc23)ccc1CNC1CC1 (stereo unspecified) .
inactive

====

- System: Madurella mycetomatis MM55
- TEST: growth relative to untreated control; higher = less inhibition, active = 20 or less
- RUN CONDITIONS: 25 µM
Would you mind telling me the reported growth of each entry?
Numbers only, in %.

1. N#Cc1ccc(C/C(=N/NC(=O)Nc2ccc(OC(F)(F)F)cc2)c2cccc(C(F)(F)F)c2)cc1 ... 98.2

Hey, quick one: what's growth for each of these?
1. CO/C=C(/C(=O)OC)c1ccccc1COc1c(C)c(-c2ccc(C)cc2C)nn1C
2. COC(=O)[C@@]1(c2ccc(C)cc2)C[C@H]1CN1CCC(O)(c2ccccc2)CC1
3. CCOC(=O)c1c(CSc2ccccc2)n(C)c2cc(Br)c(O)c(CN(C)C)c12
4. C[C@H](NC(=O)c1cc2cccc(F)c2[nH]1)c1ccccc1

[6.33, 77.2, 98.5, 26.9]

====

- System: Falciformispora senegalensis CBS197.79
- TEST: growth relative to untreated control; higher = less inhibition, active = 20 or less
- RUN CONDITIONS: 100 µM
ASSAY READOUT: growth

1. C/C=C/C[C@@H](C)[C@@H](O)[C@H]1C(=O)N[C@@H](CC)C(=O)N(C)CC(=O)N(C)[C@@H](CC(C)C)C(=O)N[C@@H](C(C)C)C(=O)N(C)[C@@H](CC(C)C)C(=O)N[C@@H](C)C(=O)N[C@H](C)C(=O)N(C)[C@H](CC(C)C)C(=O)N(C)[C@@H](CC(C)C)C(=O)N(C)[C@@H](C(C)C)C(=O)N1C ... 94.5% (inactive)

# batch: return growth for each of the 6 molecules below
1. COc1ccc2cc1Oc1ccc(cc1)C[C@H]1c3cc(c(OC)cc3CCN1C)Oc1c(OC)c(OC)cc3c1[C@H](C2)N(C)CC3
2. COc1cc(N2CCN(C)CC2)ccc1Nc1nccc(-c2cn(C)c3cnccc23)n1
3. CCOC(=O)N1CCC(=C2c3ccc(Cl)cc3CCc3cccnc32)CC1
4. COC(=O)C1=C(C)NC(C)=C(C(=O)OCCN2CCN(C(c3ccccc3)c3ccccc3)CC2)C1c1cccc([N+](=O)[O-])c1 (configuration not stated)
5. CC(C)C[C@H](NC(=O)[C@H](Cc1ccccc1)NC(=O)c1cnccn1)B(O)O
6. Cc1ccc(-c2c3c(nc4sc(C(=O)Nc5ccc(F)cc5)c(N)c24)CCC3)cc1

1. 20.6% (inactive)
2. 75.1% (inactive)
3. 104% (inactive)
4. 99.1% (inactive)
5. 93.7% (inactive)
6. 89.6% (inactive)

====

- Test system: Falciformispora senegalensis CBS197.79
- TEST: growth relative to untreated control; higher = less inhibition, active = 20 or less
- RUN CONDITIONS: 25 µM
So I've got a bunch of molecules here, and I need their growth values.
Numbers only, in %.

Solved cases below.
1) CCN1CCC(c2cc(C)c3nc(-c4cc5c(C)nc(C)cn5n4)cc(=O)n3c2)CC1 ... 104
2) COC(=O)C1=C(C)NC(C)=C(C(=O)OCCN2CCN(C(c3ccccc3)c3ccccc3)CC2)C1c1cccc([N+](=O)[O-])c1 (stereo not given) ... 94
3) CCN(CC)CCNC(=O)c1ccc(NC(=O)c2cc3c(C)nn(-c4ccc(Cl)cc4)c3s2)cc1 ... 58.4
4) N#Cc1c(N)nc(NC2CC2)nc1N ... 99.7
5) C[C@H](NC(=O)c1cc2cccc(F)c2[nH]1)c1ccccc1 ... 100

For each entry beneath this line, provide reported growth.
1. C[C@H](NC(=O)c1cc2c(F)cccc2[nH]1)c1ccccc1
2. Cc1nc2ccccc2n1Cc1ccc(Cl)cc1
3. C[C@H](CS)C(=O)N1CCC[C@H]1C(=O)O
4. CC(C)Nc1ncc2nc(Nc3cc(F)cc(Cl)c3)n(C3CCNCC3)c2n1
5. COc1cccc2c1C(=O)c1c(O)c3c(c(O)c1C2=O)C[C@@](O)(C(=O)CO)C[C@@H]3O[C@H]1C[C@H](N)[C@H](O)[C@H](C)O1

84.1
106
109
101
94.8

====

- Test system: Madurella mycetomatis MM55
- TEST: growth relative to untreated control; higher = less inhibition, active = 20 or less
- RUN CONDITIONS: 25 µM
ASSAY READOUT: growth (%)
Answers are plain numbers, in %.

Worked cases, answers included:
1. O=C(Nc1cccc(-c2cc3nc(Nc4ccc(N5CCOCC5)cc4)ncc3[nH]2)c1)C1CC1 ... 78.9
2. Nc1nc(C2CC2)cn1CC(O)c1ccc(Cl)cc1Cl (centres undefined) ... 83.6
3. CC(C)Nc1ncc2nc(Nc3cc(F)cc(Cl)c3)n(C3CCNCC3)c2n1 ... 91.1
4. CCC1=C(c2ccc(C)cc2)S(=O)(=O)N=C1N1CCC(C(=O)NCCN2CCCCC2C)CC1 (centres undefined) ... 88
5. CN1CCC[C@@H]1CCO[C@](C)(c1ccccc1)c1ccc(Cl)cc1 ... 11.1

List the reported growth of each molecule below.
1. N#C/C(C(=O)c1ccccc1Cl)=C1\NC(c2ccccc2)=CS1
2. CCS(=O)(=O)N1CC(CC#N)(n2cc(-c3ncnc4[nH]ccc34)cn2)C1
3. COc1ccc2cc1Oc1ccc(cc1)C[C@H]1c3cc(c(OC)cc3CCN1C)Oc1c(OC)c(OC)cc3c1[C@H](C2)N(C)CC3

79.7
94.3
3.29

Report growth for every entry below.
1. Cc1ccc(-c2cc(C(F)(F)F)nn2-c2ccc(S(N)(=O)=O)cc2)cc1
2. O=C(NC1CCCc2c1[nH]c1ccc(Cl)cc21)c1ccccn1 (centres undefined)
3. CCCCOC(=O)c1c(C)cnc2ccccc12
4. CCSC1CCCCC1NCCn1c(=O)oc2cccnc21 (centres undefined)

98
35.3
86.7
37.9

For every record below, what is its growth?
1. C[C@H](NC(=O)c1cc2c(F)cccc2[nH]1)c1ccccc1
2. Nc1nc2ccccc2n1CC(O)c1ccc(Cl)cc1Cl (centres undefined)
3. CNC(=O)c1cc(Oc2ccc(NC(=O)Nc3ccc(Cl)c(C(F)(F)F)c3)cc2)ccn1

1. 20.7
2. 95.4
3. 45.7

Please give growth, item by item, for the list that follows.
1. S=C(NCc1ccc2c(c1)OCO2)N1CCN(c2ncnc3c2oc2ccccc23)CC1
2. CCN1CCN(Cc2ccc(Nc3ncc(F)c(-c4cc(F)c5nc(C)n(C(C)C)c5c4)n3)nc2)CC1
3. C/C=C/C[C@@H](C)[C@@H](O)[C@H]1C(=O)N[C@@H](CC)C(=O)N(C)CC(=O)N(C)[C@@H](CC(C)C)C(=O)N[C@@H](C(C)C)C(=O)N(C)[C@@H](CC(C)C)C(=O)N[C@@H](C)C(=O)N[C@H](C)C(=O)N(C)[C@H](CC(C)C)C(=O)N(C)[C@@H](CC(C)C)C(=O)N(C)[C@@H](C(C)C)C(=O)N1C
4. C[C@H]1O[C@@H](O[C@H]2[C@@H](O)C[C@H](O[C@H]3[C@@H](O)C[C@H](O[C@H]4CC[C@@]5(C)[C@H](CC[C@@H]6[C@@H]5CC[C@]5(C)[C@@H](C7=CC(=O)OC7)CC[C@]65O)C4)O[C@@H]3C)O[C@@H]2C)C[C@H](O)[C@@H]1O
5. COc1cc2nccc(Oc3ccc(NC(=O)C4(C(=O)Nc5ccc(F)cc5)CC4)cc3)c2cc1OC

1. 73.4
2. 80.5
3. 79
4. 94.5
5. 99.9

Please supply growth for each of the following items, keeping them in order.
1. COc1ccc2c(c1)c(CC(=O)O)c(C)n2C(=O)c1ccc(Cl)cc1
2. CC(C)(C)c1nc(-c2cccc(NS(=O)(=O)c3c(F)cccc3F)c2F)c(-c2ccnc(N)n2)s1

79.7
103

Below are 4 molecules. Give each one its growth.
1. CN1CCC(Oc2nc(Nc3ccccc3)nc3[nH]cc(-c4cnn(C)c4)c23)CC1
2. CC(C)(C)NCc1ccc(Nc2ccnc3cc(Cl)ccc23)cc1O
3. OB(O)O
4. CC[C@@H]([C@H](C)O)n1ncn(-c2ccc(N3CCN(c4ccc(OC[C@@H]5CO[C@@](Cn6cncn6)(c6ccc(F)cc6F)C5)cc4)CC3)cc2)c1=O

1: 78.3; 2: 79.1; 3: 98.7; 4: 6.56

Report growth for every entry below.
1. CCOc1ccc(-c2nc(NC(=O)Cc3cccc(OC)c3)sc2C)cc1
2. COc1ccc(-c2cc3ncnc(N4CCN(CCN5CCCC5)CC4)c3s2)cc1
3. CN(C)CCOc1ccc(/C(=C(/CCCl)c2ccccc2)c2ccccc2)cc1
4. COCC[C@H](NC(=O)c1cc2ccc(C(F)(F)F)cc2[nH]1)c1ccccc1
5. CCCCCCO[C@@H](C)c1cccc(-c2csc(NC(=O)c3cc(Cl)c(/C=C(\C)C(=O)O)c(Cl)c3)n2)c1OC
6. CC[C@H](C)[C@@H]1NC(=O)c2csc(n2)[C@H]([C@@H](C)CC)NC(=O)c2csc(n2)CNC(=O)c2nc1oc2C
7. COc1ccc2c(O[C@@H]3C[C@H]4C(=O)N[C@]5(C(=O)NS(=O)(=O)C6CC6)C[C@H]5/C=C\CCCCN(C)C(=O)[C@@H]4C3)cc(-c3nc(C(C)C)cs3)nc2c1C
8. Cc1ccc(NC(=O)c2ccc(CN3CCN(C)CC3)cc2)cc1Nc1nccc(-c2cccnc2)n1

[99.6, 4.86, 7.23, 30.3, 81, 64.4, 87.1, 86]
